Where do these numbers come from? They come from ChEMBL document CHEMBL3102744.

molecular target: UniProtKB O42713; assay: Competitive inhibition of mushroom tyrosinase using L-tyrosine as substrate preincubated for 10 mins with substrate followed by enzyme addition measured after 15 mins by Dixon plot analysis
Sequence (O42713 whole entry): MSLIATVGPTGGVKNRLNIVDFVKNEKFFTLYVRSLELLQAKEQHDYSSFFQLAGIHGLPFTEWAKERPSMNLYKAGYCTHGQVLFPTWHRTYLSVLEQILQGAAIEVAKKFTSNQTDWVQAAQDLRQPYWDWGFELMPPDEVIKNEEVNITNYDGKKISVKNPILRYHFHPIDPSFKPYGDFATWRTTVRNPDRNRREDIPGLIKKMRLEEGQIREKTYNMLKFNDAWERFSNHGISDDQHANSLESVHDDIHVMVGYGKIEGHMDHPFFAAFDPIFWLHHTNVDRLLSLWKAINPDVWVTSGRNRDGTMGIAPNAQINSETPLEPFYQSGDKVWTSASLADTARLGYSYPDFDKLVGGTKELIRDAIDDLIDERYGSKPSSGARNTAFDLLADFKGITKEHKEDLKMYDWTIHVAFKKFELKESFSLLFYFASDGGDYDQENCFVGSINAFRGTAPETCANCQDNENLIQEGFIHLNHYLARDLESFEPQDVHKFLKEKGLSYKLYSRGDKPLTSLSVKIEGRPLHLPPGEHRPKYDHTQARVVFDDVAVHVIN
readout: Ki (nM)

COc1ccc(CCC(=O)c2c(O)c(CC=C(C)C)c3c(c2O)CC(O)C(C)(C)O3)cc1 (stereo unspecified) | 480
COc1ccc(CCC(=O)c2ccc3c(c2O)CC(O)C(C)(C)O3)cc1 (stereo unspecified) | 9360
COc1ccc(CCC(=O)c2c(O)c3c(c4c2OC(C(C)(C)O)C4)OC(C)(C)C=C3)cc1 (stereo unspecified) | 630
CC(C)=CCc1c2c(c(O)c3c1O[C@H](c1ccc(O)cc1O)CC3=O)C=CC(C)(C)O2 [FLEMICHIN D] | 860

1: COc1ccc([C@@H]2CC(=O)c3c(O)c4c(c(CC=C(C)C)c3O2)OC(C)(C)C=C4)c(O)c1 [KHONKLONGINOL H]
2: CC(C)=CCc1c2c(c(O)c3c1O[C@H](c1ccc(O)cc1)CC3=O)C=CC(C)(C)O2 [LUPINIFOLIN]
Parameter check: reported Ki is higher for which label, 1 or 2 ? Lab log: write the label of the selected item as the result.
2
